These records show GI50 for U251 CNS.
Measured property: GI50

INSERT INTO measurements (compound, measured_property, endpoint_value) VALUES
  ('NC(=O)Oc1cc(OC(N)=O)cc(N(CCCl)CCCl)c1', 'GI50', '2240 nM'),
  ('COc1ccc(Nc2ccnc(NCCCNc3ccnc4cc(Cl)ccc34)n2)cc1', 'GI50', '590 nM'),
  ('Cn1cnc2c(NCc3ccccc3)nc(NCCO)nc21', 'GI50', '133000 nM'),
  ('O=C(Nc1ccc(Br)c(Cl)c1)c1cc(F)ccc1O', 'GI50', '768 nM'),
  ('Cc1ccc2sc3c(NCCCNCCO)nc4ccccc4c3c(=O)c2c1', 'GI50', '1600 nM'),
  ('CC1(C)C2CCC13C(=O)C1OC3(C2)C2C(=O)c3c(O)ccc(O)c3C(=O)C12 (stereo not given)', 'GI50', '44400 nM'),
  ('COc1ccc2c(c1)Cc1c-2c(NN)nc2ccccc12', 'GI50', '21500 nM'),
  ('[N-]=[N+]=CC(=O)OCC(N)C(=O)O (stereo not given)', 'GI50', '778 nM'),
  ('C#C[C@@]1(O)[C@@H](CO)O[C@@H](n2cc(F)c3c(N)ncnc32)[C@@H]1O', 'GI50', '631 nM'),
  ('CC/C(=C(\CC)c1ccc(OCCN(CC)CC)cc1)c1ccc(OCCN(CC)CC)cc1', 'GI50', '1870 nM');

====

The following compounds are listed with their measured GI50 values.
System: KM12 colon
Experiment: NCI tumour cell line growth inhibition, 48 h
Measured property: GI50

INSERT INTO results (compound, measured_property, endpoint_value) VALUES
  ('COc1ccc2c(c1)Cc1c-2c(NN)nc2ccccc12', 'GI50', '13800 nM'),
  ('CC(=O)OCC1OC(S[As](C)C)C(OC(C)=O)C1OC(C)=O (stereo not given)', 'GI50', '2000 nM'),
  ('O=C(/C=C\Sc1nccc(C(F)(F)F)n1)c1ccc(Br)cc1', 'GI50', '38100 nM'),
  ('[N-]=[N+]=CC(=O)OCC(N)C(=O)O (stereo not given)', 'GI50', '580 nM'),
  ('C[C@]12CCC(=O)C=C1CC[C@@H]1[C@@H]2CC[C@]2(C)C(=O)/C(=C/c3cccc(OCCN4CCOCC4)c3)C[C@@H]12', 'GI50', '9020 nM'),
  ('CN1CCN(Cc2ccc(NC(=O)c3cncc(C#Cc4c(N)ncc5cc(F)ccc45)c3)cc2C(F)(F)F)CC1', 'GI50', '17.2 nM'),
  ('CO[C@H](C(=O)N[C@@H](CCCCNC(=O)OCc1ccccc1)C(=O)OC(C)(C)C)[C@@H]1Cc2cc3cc(OC4CC(OC5CC(O)C(O)C(C)O5)C(O)C(C)O4)c(C)c(O)c3c(O)c2C(=O)[C@H]1OC1CC(OC2CC(OC3CC(C)(O)C(O)C(C)O3)C(O)C(C)O2)C(O)C(C)O1 (stereo not given in full)', 'GI50', '603 nM'),
  ('CC1(C)C2CCC13C(=O)C1OC3(C2)C2C(=O)c3c(O)ccc(O)c3C(=O)C12 (stereo not given)', 'GI50', '> 50400 nM'),
  ('C/C(=C\c1ccn(-c2ccc(N)cc2)n1)[C@@H]1C[C@@H]2O[C@]2(C)CCC[C@H](C)[C@H](O)[C@@H](C)C(=O)C(C)(C)[C@@H](O)CC(=O)O1', 'GI50', '19.6 nM'),
  ('Cn1cnc2c(NCc3ccccc3)nc(NCCO)nc21', 'GI50', '62100 nM'),
  ('CCN(CC)CCOc1cc2c(C(=O)OC)c(C)oc2cc1C(C)=O', 'GI50', '4450 nM'),
  ('COc1ccc(Nc2ccnc(NCCCNc3ccnc4cc(Cl)ccc34)n2)cc1', 'GI50', '1670 nM'),
  ('COC(=O)c1c2c(c(C)[n+]([O-])c1C)C(=O)C(NCc1ccc(F)c(F)c1)=CC2=O', 'GI50', '2160 nM'),
  ('Cc1cc(C)nc(SC2=C(Nc3cccc(Cl)c3)C(=O)N(Cc3ccccc3)C2=O)n1', 'GI50', '> 170000 nM'),
  ('O=C(Nc1ccc(Br)c(Cl)c1)c1cc(F)ccc1O', 'GI50', '1360 nM');
